# MEASURED ON: DLG4_1, P78352
# Sequence (P78352 62-152): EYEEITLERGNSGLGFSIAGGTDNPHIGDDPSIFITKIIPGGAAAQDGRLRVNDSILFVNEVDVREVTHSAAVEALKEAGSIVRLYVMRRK
# PROTOCOL NOTES: holdup assay
# Design: key: below the threshold = too weak to quantify, mostly under pKd 3.1 to 4
# RECORDED CONDITIONS: plain residues with an end cap or a label only (N-terminal biotin on a linker: ado-ado)
I'd be grateful if you could share measured pKd for these entries.
Quick one: just the number, no unit, thanks!

pKd reading for NTLNRKTTPV [CACNG8, Q8WXS5] : 4.4

pKd reading for TGLWKHETTV [ADGRA3, Q8IWK6] : 5.21

pKd reading for AAVENKVTDL [PLXNB1, O43157] : 3.68

pKd reading for DGVNEKVSCV [HTR2A, P28223] : 3.69

pKd reading for MQHQRTHTRV [ZSCAN30, Q86W11] : 4.59

pKd reading for PPGKHLVTEV [KCNA7, Q96RP8] : 4.64

pKd reading for GIKKITSTAL [RPS6KA3, P51812] : 3.76

pKd reading for TNSRHGETTV [FZD2, Q14332] : 4.85

pKd reading for APIAGFSSFV [SDK2, Q58EX2] : 4.24

pKd reading for DTKNYKQTSV [CRIPT, Q9P021] : 4.37

pKd reading for DPAESMESLV [PTPRG, P23470] : 4.59

pKd reading for QSYPSKHDYV [CLDN18, P56856] : 3.67

pKd reading for KKMLQRRTLL [OR8G1, Q15617] : 3.87

pKd reading for ARSAAASNYV [CLDN4, O14493] : 3.54

pKd reading for NTANRRTTPV [CACNG2, Q9Y698] : 4.5

pKd reading for EIPAQSPTCV [FZD10, Q9ULW2] : 4.01
